- Test target: activated ERK2 (Homo sapiens (Human), UniProt P28482)
- Sequence (P28482 whole entry): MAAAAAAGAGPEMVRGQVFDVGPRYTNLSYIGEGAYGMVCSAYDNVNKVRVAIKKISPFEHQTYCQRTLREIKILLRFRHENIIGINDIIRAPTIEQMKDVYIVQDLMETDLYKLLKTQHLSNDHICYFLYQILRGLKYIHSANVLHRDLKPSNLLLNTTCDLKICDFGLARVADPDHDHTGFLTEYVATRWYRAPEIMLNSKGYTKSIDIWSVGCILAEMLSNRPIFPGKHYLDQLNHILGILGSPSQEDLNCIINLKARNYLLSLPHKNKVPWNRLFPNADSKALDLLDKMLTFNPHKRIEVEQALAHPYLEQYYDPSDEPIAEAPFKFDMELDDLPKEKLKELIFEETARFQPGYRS
- Assay details: Activated ERK2 kinase assay (AlphaScreen, ERKtide peptide phosphorylation)
- Assay type: biochemical
- Measurement context: […] ERK2, 200 nM ERKtide peptide, 35 μM ATP, 30 min preincubation; read-out: ERK2 IC50
Recorded pIC50, one value per entry.
pIC50 is a log-scale quantity: -log10 of the concentration expressed in molar.

- Entry smiles: "CC1(C)c2cnc(NC3CCOCC3)nc2CN1C(=O)NCc1ccccc1F"
  Measured value: 6.80
- Entry smiles: "O=C(N[C@H](CO)c1ccccc1)N1Cc2nc(NC3CCOCC3)ncc2C12CCC2"
  Measured value: 7.89

Input: Item under review: `CN1CCN(C(=O)N2Cc3nc(Nc4ccccc4)ncc3C2(C)C)CC1(C)C` . Reported pIC50?
Output: 4.42

Input: Item under review: `CC1(C)c2cnc(NC3CCOCC3)nc2CN1C(=O)NCc1ccc(C(F)(F)F)cc1` . Reported pIC50?
Output: 8.00

Input: Item under review: `CC1(C)c2cnc(NCCC#N)nc2CN1C(=O)N[C@H](CO)c1ccccc1` . Reported pIC50?
Output: 5.82

Input: Item under review: `CC1(C)c2cnc(NC3CCOCC3)nc2CN1C(=O)NCc1cccc(S(=O)(=O)C2CC2)c1` . Reported pIC50?
Output: 7.15

Input: Item under review: `CC1(C)c2cnc(NC3CCOCC3)nc2CN1C(=O)NCC1CCOCC1` . Reported pIC50?
Output: 6.44

Input: Item under review: `CC1(C)c2cnc(NC3CCOCC3)nc2CN1C(=O)NC1(c2ccccc2)CC1` . Reported pIC50?
Output: 7.77

Entry source: patent US9546173B2
